// provenance: ChEMBL document CHEMBL4219185

# PROCEDURE DETAILS: Cytotoxicity against human […] cells assessed as reduction in cell viability by MTT assay
# Assay type: cell-based
pIC50: −log10 of the molar value.
READOUT KIND: pIC50

CHEMICAL SMILES	READOUT KIND	MEASURED RESULT
CN(C)CCCNC(=O)c1ccc2nc(-c3ccc4nc(CNC(=O)CCCCCCCCCC(=O)NCc5nc6ccc(-c7nc8ccc(C(=O)NCCCN(C)C)cc8[nH]7)cc6[nH]5)[nH]c4c3)[nH]c2c1	pIC50	< 3.62

pIC50 lookup needed for "CN(C)CCCNC(=O)c1ccc2nc(-c3ccc4nc(CNC(=O)CC(=O)NCc5nc6ccc(-c7nc8ccc(C(=O)NCCCN(C)C)cc8[nH]7)cc6[nH]5)[nH]c4c3)[nH]c2c1" , thanks.
< 3.62

pIC50 lookup needed for "CN1CCN(c2ccc3nc(-c4ccc5nc(CNC(=O)CCCC(=O)NCc6nc7ccc(-c8nc9ccc(N%10CCN(C)CC%10)cc9[nH]8)cc7[nH]6)[nH]c5c4)[nH]c3c2)CC1" , thanks.
4.05 to 4.70

pIC50 lookup needed for "CN1CCN(c2ccc3nc(-c4ccc5nc(CNC(=O)CC(=O)NCc6nc7ccc(-c8nc9ccc(N%10CCN(C)CC%10)cc9[nH]8)cc7[nH]6)[nH]c5c4)[nH]c3c2)CC1" , thanks.
4.05 to 4.70

pIC50 lookup needed for "CN1CCN(c2ccc3nc(-c4ccc5nc(CNC(=O)CCCCC(=O)NCc6nc7ccc(-c8nc9ccc(N%10CCN(C)CC%10)cc9[nH]8)cc7[nH]6)[nH]c5c4)[nH]c3c2)CC1" , thanks.
4.05 to 4.70

pIC50 lookup needed for "CN1CCN(c2ccc3nc(-c4ccc5nc(CNC(=O)CCCCCCC(=O)NCc6nc7ccc(-c8nc9ccc(N%10CCN(C)CC%10)cc9[nH]8)cc7[nH]6)[nH]c5c4)[nH]c3c2)CC1" , thanks.
4.05 to 4.70

pIC50 lookup needed for "CN(C)CCCNC(=O)c1ccc2nc(-c3ccc4nc(CNC(=O)CCCC(=O)NCc5nc6ccc(-c7nc8ccc(C(=O)NCCCN(C)C)cc8[nH]7)cc6[nH]5)[nH]c4c3)[nH]c2c1" , thanks.
< 3.62
